Measurement context: Liquid; Ebulliometric method (Recirculating still)
Property: Normal boiling temperature (°C)

Cc1ccc(C)cc1
138.47

P. CC(=O)O
Q. COC(C)=O [methyl ethanoate]
Q. Lab log: flag the item ( P or Q ) with the smaller Normal boiling temperature figure. Please indicate the selected item by its label.
A. Q
(Q: 56.7 °C, P: 117.93 °C)

====

Measurement context: 298.15 K; 101.33 kPa; Liquid; Vibrating tube method
Property: mass density (kg/m3)

CC(=O)O
1043.5
CCC(C)OC(C)=O (centres undefined) [1-methylpropyl ethanoate]
866.4
Cc1ccc(C)cc1
856.5
COC(C)=O [methyl ethanoate]
927.5
